In this section, each of the compounds is paired with its reported inhibition at 10 µM.
- system: human B1R receptor (Homo sapiens)
- Construct: host or cells: CHO K1 cells (Chinese hamster ovary), stably transfected
- Sequence (P46663 1-353): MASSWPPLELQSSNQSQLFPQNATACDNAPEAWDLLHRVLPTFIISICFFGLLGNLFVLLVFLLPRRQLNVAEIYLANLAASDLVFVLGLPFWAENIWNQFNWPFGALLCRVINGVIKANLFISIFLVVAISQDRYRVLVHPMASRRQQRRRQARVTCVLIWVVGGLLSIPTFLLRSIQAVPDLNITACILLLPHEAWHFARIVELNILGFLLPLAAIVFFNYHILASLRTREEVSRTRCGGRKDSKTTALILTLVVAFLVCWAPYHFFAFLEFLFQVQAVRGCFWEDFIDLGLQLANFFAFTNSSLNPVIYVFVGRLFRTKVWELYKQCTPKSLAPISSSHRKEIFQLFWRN
- measurement.description: Functional study on the bradykinin receptor 1 (B1R), FLIPR Ca2+ assay, hB1R cells
- Format: cell-based
- details: CHO-K1, test substance 10 μM, agonist Lys-Des-Arg9-bradykinin 0.5 nM, % inhibition compared with the maximum achievable inhibition, read-out: B1R Antagonism, human [10 μM] % Inhibition
Counter-ions that a name gives are not always drawn.
# unit: % | format: bare number

>>> numeric_value("O=C(COCC1CCCCN1S(=O)(=O)c1c(Cl)cccc1Cl)N1CCN(CCc2ccccc2)CC1 (stereo not shown)")
106
>>> numeric_value("O=C(COCC1CCCCN1S(=O)(=O)c1c(Cl)cc(Cl)cc1Cl)N1CCC(c2ccncc2)C1 (stereo not shown)")
103
>>> numeric_value("COc1ccc(S(=O)(=O)N2CCCCC2COCC(=O)N2CCN(C3CCN(C)CC3)CC2)c2ccccc12 (stereo not shown) [Example 174, dihydrochloride]")
101
>>> numeric_value("CCN(CC)CCN(CCN(CC)CC)C(=O)COCC1Cc2ccccc2CN1S(=O)(=O)c1c(C)cc(C)cc1C (stereo not shown)")
66.6
>>> numeric_value("COc1cc(C)c(S(=O)(=O)N2CCCC2COCC(=O)Nc2nc3ccccc3n2C)c(C)c1 (stereo not shown)")
24.2

[ask] What does the data say about its inhibition at 10 µM? Entry: COc1cc(C)c(S(=O)(=O)N2CCCCC2COCC(=O)N2CCN(C(C)C)CC2)c(C)c1 (stereo not shown)
[reply] 104

[ask] Item under review: COc1cc(C)c(S(=O)(=O)N2CCCC2COCC(=O)N2CCC(N3CCCCC3)CC2)c(C)c1 (stereo not shown) . Reported inhibition at 10 µM?
[reply] 103

---

- system: B1R receptor of the rat (Rattus norvegicus, UniProt P97583)
- Construct: host or cells: CHO K1 cells (Chinese hamster ovary), stably transfected
- Sequence (P97583 1-337): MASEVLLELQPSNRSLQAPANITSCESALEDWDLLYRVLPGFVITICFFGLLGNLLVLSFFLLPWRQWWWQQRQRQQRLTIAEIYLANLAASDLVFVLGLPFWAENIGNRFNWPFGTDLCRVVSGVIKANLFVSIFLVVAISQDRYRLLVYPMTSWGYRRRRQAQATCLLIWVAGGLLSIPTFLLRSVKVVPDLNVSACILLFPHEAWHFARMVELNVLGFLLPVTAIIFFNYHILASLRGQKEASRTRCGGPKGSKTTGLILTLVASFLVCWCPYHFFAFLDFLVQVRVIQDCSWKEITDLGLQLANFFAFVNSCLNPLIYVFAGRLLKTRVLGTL
- measurement.description: Functional study on the bradykinin receptor 1 (B1R), FLIPR Ca2+ assay, rB1R cells
- Type: cell-based
- details: CHO-K1, test substance 10 μM, agonist Des-Arg9-bradykinin 100 nM, % inhibition compared with the maximum achievable inhibition, read-out: B1R Antagonism, rat [10 μM] % Inhibition
In this section we review reported inhibition at 10 µM values for a set of compounds.

[ask] Would you mind telling me what inhibition at 10 µM value was observed for CCN1CCN(C(=O)COCC2CCCN2S(=O)(=O)c2c(Cl)cc(Cl)cc2Cl)CC1 (stereo not shown) ?
[reply] 103%

[ask] For the compound `COc1cc(C)c(S(=O)(=O)N2Cc3ccccc3C[C@H]2COCC(=O)N2CCC(CCN3CCCC3)CC2)c(C)c1` , what inhibition at 10 µM is on record?
[reply] 102%

[ask] Param item = O=C(COCC1Cc2ccccc2CN1S(=O)(=O)c1ccc(Cl)c(Cl)c1)N1CCCC1CN1CCCCC1 (stereo not shown) ; retrieve measured inhibition at 10 µM.
[reply] 4.42%

[ask] Given the entry COc1cc(C)c(S(=O)(=O)N2CCCC2COCC(=O)N2CCN(c3ccccc3OC)CC2)c(C)c1 (stereo not shown) , report its measured inhibition at 10 µM.
[reply] 97.9%
